Data origin, for the record: PubChem BioAssay AID2060615

Reported viability, T/C is given for each of the following compounds.
# Test system: 496974-208-R-J2-PDC complex spheroids, growth % test/control
# Measurement description: Anticancer human tumor 496974-208-R-J2-PDC patient-derived pancreatic carcinoma cell line growth inhibition [CLK]
# Assay context: second compound 0.1 µM; first compound 0.1 µM; stronger effect = lower value
# output: bare number, implied unit %

| Compound | Quantity | Measured number |
| --- | --- | --- |
| COC1C=CCC(C)C(C)S(=O)(=O)NC(=O)c2ccc3c(c2)N(CC2CCC21)CC1(CCCc2cc(Cl)ccc21)CO3 (stereo unspecified) + CNC(=O)c1ccc(Nc2nc(OC3CCCC3)c3c(-c4ccc5nc(C)oc5c4)c[nH]c3n2)c(OC)c1 | viability, T/C | 55.6 |
| C=CC(=O)N1CCN(c2nc(=O)n(-c3c(C)ccnc3C(C)C)c3nc(-c4c(O)cccc4F)c(F)cc23)C(C)C1 (stereo unspecified) + CN1CCN(c2cc(C(=O)Nc3cc4cc(-c5cnn(C)c5)ccc4cn3)ccn2)CC1 | viability, T/C | 89.7 |
| C#Cc1c(F)ccc2cc(O)cc(-c3ncc4c(N5CC6CCC(C5)N6)nc(OCC56CCCN5CC(F)C6)nc4c3F)c12 (stereo unspecified) + CN1CCN(c2cc(C(=O)Nc3cc4cc(-c5cnn(C)c5)ccc4cn3)ccn2)CC1 | viability, T/C | 34.7 |
| O=C(c1cc(Cc2n[nH]c(=O)c3ccccc23)ccc1F)N1CCN(C(=O)C2CC2)CC1 + CN1CCN(c2cc(C(=O)Nc3cc4cc(-c5cnn(C)c5)ccc4cn3)ccn2)CC1 | viability, T/C | 76 |
| COc1ccc([C@@H](O)c2cc(-c3ncnc4cc(N5CCOCC5)ccc34)c(F)cc2Cl)nn1 + CN1CCN(c2cc(C(=O)Nc3cc4cc(-c5cnn(C)c5)ccc4cn3)ccn2)CC1 | viability, T/C | 81.4 |
| Nc1ccn(C2OC(CO)C(O)C2(F)F)c(=O)n1 (stereo unspecified) + CNC(=O)c1ccc(Nc2nc(OC3CCCC3)c3c(-c4ccc5nc(C)oc5c4)c[nH]c3n2)c(OC)c1 | viability, T/C | 80.7 |

Ask | What does the data say about its viability, T/C? Entry: CCCS(=O)(=O)Nc1ccc(F)c(C(=O)c2c[nH]c3ncc(-c4ccc(Cl)cc4)cc23)c1F + CN1CCN(c2cc(C(=O)Nc3cc4cc(-c5cnn(C)c5)ccc4cn3)ccn2)CC1
Reply | 92.3

Ask | What does the data say about its viability, T/C? Entry: COc1cccc2c1C(=O)c1c(O)c3c(c(O)c1C2=O)CC(O)(C(=O)CO)CC3OC1CC(N)C(O)C(C)O1 (stereo unspecified) + CN1CCN(c2cc(C(=O)Nc3cc4cc(-c5cnn(C)c5)ccc4cn3)ccn2)CC1
Reply | 46.6

---

# Tested on: 496974-208-R-J2-PDC complex spheroids, growth % test/control
# Measurement description: Anticancer human tumor 496974-208-R-J2-PDC cell line growth inhibition [CLK];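 also: spheroids exposed to the drugs for 7 days before readout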
# Assay context: curve of first compound; second compound 0.1 µM
Quantity: pIC50
# pIC50: negative log10 of molar concentration; output just the value

Record excerpt, results attached:
| Compound | Study target | Quantity | Measured number |
| --- | --- | --- | --- |
| COc1cccc2c1C(=O)c1c(O)c3c(c(O)c1C2=O)CC(O)(C(=O)CO)CC3OC1CC(N)C(O)C(C)O1 (stereo not drawn) + CNC(=O)c1ccc(Nc2nc(OC3CCCC3)c3c(-c4ccc5nc(C)oc5c4)c[nH]c3n2)c(OC)c1 | 496974-208-R-J2-PDC complex spheroids, growth % test/control | pIC50 | 6.75 |
| C=C(F)C(=O)N1CCN(c2nc(OCC3CCCN3C)nc3c2CCN(c2cccc4cccc(Cl)c24)C3)CC1CC#N (stereo not drawn) + CN1CCN(c2cc(C(=O)Nc3cc4cc(-c5cnn(C)c5)ccc4cn3)ccn2)CC1 | 496974-208-R-J2-PDC complex spheroids, growth % test/control | pIC50 | 5.35 |
| C=C(F)C(=O)N1CCN(c2nc(OCC3CCCN3C)nc3c2CCN(c2cccc4cccc(Cl)c24)C3)CC1CC#N (stereo not drawn) + CNC(=O)c1ccc(Nc2nc(OC3CCCC3)c3c(-c4ccc5nc(C)oc5c4)c[nH]c3n2)c(OC)c1 | 496974-208-R-J2-PDC complex spheroids, growth % test/control | pIC50 | 5.34 |
| CC1(C)CCC(CN2CCN(c3ccc(C(=O)NS(=O)(=O)c4ccc(NCC5CCOCC5)c([N+](=O)[O-])c4)c(Oc4cnc5[nH]ccc5c4)c3)CC2)=C(c2ccc(Cl)cc2)C1 + CN1CCN(c2cc(C(=O)Nc3cc4cc(-c5cnn(C)c5)ccc4cn3)ccn2)CC1 | 496974-208-R-J2-PDC complex spheroids, growth % test/control | pIC50 | 5.09 |
| COC1C=CCC(C)C(C)S(=O)(=O)NC(=O)c2ccc3c(c2)N(CC2CCC21)CC1(CCCc2cc(Cl)ccc21)CO3 (stereo not drawn) + CN1CCN(c2cc(C(=O)Nc3cc4cc(-c5cnn(C)c5)ccc4cn3)ccn2)CC1 | 496974-208-R-J2-PDC complex spheroids, growth % test/control | pIC50 | 5.17 |

Ask | pIC50 of CC(Nc1ccc2c(c1)OCCn1cc(N3C(=O)OCC3C(F)F)nc1-2)C(N)=O (stereo not drawn) + CN1CCN(c2cc(C(=O)Nc3cc4cc(-c5cnn(C)c5)ccc4cn3)ccn2)CC1 on 496974-208-R-J2-PDC complex spheroids, growth % test/control?
Reply | 7.00
